Each entry below carries its reported pEC50.
Molecular target: human activated kallikrein enzyme (Homo sapiens, UniProt P03952)
Sequence (P03952 391-638 limits assumed): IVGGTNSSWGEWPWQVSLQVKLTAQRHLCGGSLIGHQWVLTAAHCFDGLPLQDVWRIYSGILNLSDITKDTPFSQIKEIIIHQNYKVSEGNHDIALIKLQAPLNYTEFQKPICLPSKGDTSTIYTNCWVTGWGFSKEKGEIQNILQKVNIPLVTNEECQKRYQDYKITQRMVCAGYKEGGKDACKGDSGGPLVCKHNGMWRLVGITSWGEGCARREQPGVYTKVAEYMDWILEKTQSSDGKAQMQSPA
Sequence (P03952 20-390 partner limits assumed): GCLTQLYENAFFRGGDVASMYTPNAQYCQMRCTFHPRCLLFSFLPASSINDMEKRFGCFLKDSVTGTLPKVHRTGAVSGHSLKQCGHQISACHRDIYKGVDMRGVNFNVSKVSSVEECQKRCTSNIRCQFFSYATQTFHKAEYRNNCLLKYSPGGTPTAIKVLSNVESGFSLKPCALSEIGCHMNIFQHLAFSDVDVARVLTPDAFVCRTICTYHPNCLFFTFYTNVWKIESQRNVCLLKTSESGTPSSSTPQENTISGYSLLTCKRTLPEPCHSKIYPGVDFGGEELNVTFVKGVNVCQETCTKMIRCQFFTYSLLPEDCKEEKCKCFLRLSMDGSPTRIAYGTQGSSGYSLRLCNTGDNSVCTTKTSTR
Assay: Inhibition of human activated kallikrein enzyme, fluorogenic peptide substrate assay (500 pM enzyme format)
Settings: 500 pM activated kallikrein, 300 μM PFR-AMC substrate, 30 min preincubation, 10 min reaction, room temperature; read-out: Primary Dose Response Assay: Average EC50
Procedure: Compounds were evaluated for inhibition of the human activated kallikrein enzyme in two formats of an assay employing a fluorogenic peptide substrate. […] After initiation with substrate, reactions were incubated for 10 min at room temperature and fluorescence emission at 460 nm from 380 nm excitation measured with a microplate reader. […]
pEC50: −log10 of the molar value.

Use these answered entries as a reference point.
Molecule	Measured On	pEC50
CC(C)(C(=O)Nc1cc(NCc2cn3cc(C4CC4)ccc3n2)ncn1)c1ncn2ccc(Cl)cc12	human activated kallikrein enzyme (Homo sapiens, UniProt P03952)	5.05 to 6.30
CCOC(=O)NC(=N)c1cc(C)c(CNc2cc(OCc3cn4cc(C5CC5)ccc4n3)ncn2)c(C)c1	human activated kallikrein enzyme (Homo sapiens, UniProt P03952)	6.30 to 7.30
N#Cc1cc(C2CC2)cn2cc(COc3cc(NC(=O)Cc4ncn5ccc(Cl)cc45)ncn3)nc12	human activated kallikrein enzyme (Homo sapiens, UniProt P03952)	7.30 to 8.30

Memo: "O=C(Cc1ncn2ccc(Cl)cc12)Nc1cc(C(=O)c2cn3cc(C4CC4)ccc3n2)ncn1" , reported pEC50: 5.05 to 6.30

Memo: "O=C(NCc1ncn2ccc(Cl)cc12)c1cnnc(OCc2cn3cc(C4CC4)ccc3n2)c1" , reported pEC50: 7.30 to 8.30

Memo: N=S(=O)(Nc1cc(NCc2cn3cc(C4CC4)ccc3n2)ncn1)C1CC1c1cccc(Cl)c1 (racemic) , reported pEC50: 5.05 to 6.30

Memo: "CCOC(=O)CCc1nc(NCc2c(C)cc(C(=N)NO)cc2C)cc(OCc2cn3cc(C4CC4)ccc3n2)n1" , reported pEC50: 6.30 to 7.30

Memo: "O=C(Cc1cc2c(Cl)c[nH]c2cc1F)Nc1cc(NCc2cn3cc(C4CC4)ccc3n2)ccn1" , reported pEC50: 7.30 to 8.30

Memo: "CCOC(=O)CCc1cc(C2CC2)cn2cc(CNc3cc(NC(=O)Cc4ncn5ccc(Cl)cc45)ncn3)nc12" , reported pEC50: ≥ 8.30
